Molecular target: human SLC6A19 and TMEM27 (Homo sapiens, UniProt Q695T7)
Construct: expressed in transfected cells
Sequence (Q695T7 whole entry): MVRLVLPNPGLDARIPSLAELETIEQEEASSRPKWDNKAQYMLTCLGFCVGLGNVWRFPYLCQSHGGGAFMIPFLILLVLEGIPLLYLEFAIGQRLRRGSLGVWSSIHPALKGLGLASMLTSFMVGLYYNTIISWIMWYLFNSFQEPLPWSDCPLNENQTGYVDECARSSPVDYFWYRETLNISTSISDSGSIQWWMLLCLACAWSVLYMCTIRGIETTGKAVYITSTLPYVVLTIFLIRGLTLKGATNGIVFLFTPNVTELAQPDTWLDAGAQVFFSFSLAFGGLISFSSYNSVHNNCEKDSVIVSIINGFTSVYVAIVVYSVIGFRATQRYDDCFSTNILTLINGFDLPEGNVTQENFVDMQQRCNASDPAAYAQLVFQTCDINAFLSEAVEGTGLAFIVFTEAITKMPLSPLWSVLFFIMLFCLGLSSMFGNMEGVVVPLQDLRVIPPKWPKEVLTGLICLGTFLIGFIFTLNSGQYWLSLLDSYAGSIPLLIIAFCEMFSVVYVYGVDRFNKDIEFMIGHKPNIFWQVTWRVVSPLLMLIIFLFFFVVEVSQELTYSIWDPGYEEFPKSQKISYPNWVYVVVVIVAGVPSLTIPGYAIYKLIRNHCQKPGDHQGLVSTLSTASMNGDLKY
Sequence (Q9HBJ8 15-222 partner): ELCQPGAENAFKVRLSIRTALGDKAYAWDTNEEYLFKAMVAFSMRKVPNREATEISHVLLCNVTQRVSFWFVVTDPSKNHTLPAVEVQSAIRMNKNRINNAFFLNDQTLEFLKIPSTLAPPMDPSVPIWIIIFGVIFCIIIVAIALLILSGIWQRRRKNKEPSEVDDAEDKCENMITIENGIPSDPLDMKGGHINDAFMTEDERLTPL
Assay: 13C6,15N-isoleucine uptake in CHO cells with doxycycline-inducible expression of human SLC6A19 and TMEM27, RapidFire mass spectrometry (Example B-2)
Type: cell-based
Conditions: read-out: SLC6A19_RapidFire Uptake Assay IC50
Description: Assay ready vials of CHO cells with doxycycline inducible expression of human SLC6A19 and TMEM27 were thawed, plated in T175 flasks containing DMEM/F12 media, 10% FBS, 1% Penicillin-Streptomycin, 1× UltraGlutamate, 1 mM Sodium Pyruvate, Sodium Bicarbonate (7.5 mL of 7.5% solution in 500 mL media final), 5 μg/mL Blasticidin, 150 μg/mL Hygromycin B Gold, and 500 μg/mL G418, and incubated (humidified, 37° C. with 5% CO2) for 48 hours. […] Resuspended cells were counted using a Vi-Cell. […]
Response field label: string, one of Criterion met (IC50 strictly below 500 nM) or Criterion not met.

O=C(NCc1cc2cc(F)c(OCc3ccon3)cc2[nH]1)C1(F)CC1 ... Criterion met

*Q* Record `CC1(C(=O)NCc2cc3cc(F)c(OCc4ccon4)cc3[nH]2)CC1` : is its IC50 strictly below 500 nM?
*A* Criterion met

*Q* Same thing, different molecule: `CC1(C(=O)NCc2cc3cc(Cl)c(NCc4cscn4)cc3[nH]2)CC1`
*A* Criterion met

*Q* How about `O=C(NCc1cc2cc(Cl)c(OCc3cocn3)cc2[nH]1)N1CCC1` ?
*A* Criterion not met

*Q* Moving on to the next molecule: `CC1(C(=O)NCc2cc3ccc(OCc4ncccn4)cc3[nH]2)CC1`
*A* Criterion not met

*Q* Repeat for the following molecule: `O=C(NCc1cc2cc(F)c(NCc3ccon3)cc2[nH]1)N1CCC1`
*A* Criterion not met

---

Biological target: human SLC6A19 and TMEM27 (Homo sapiens)
Construct: expressed in transfected cells
Assay: 13C6,15N-isoleucine uptake in CHO cells with doxycycline-inducible expression of human SLC6A19 and TMEM27, RapidFire mass spectrometry (Example B-2)
Type: cell-based
Conditions: read-out: SLC6A19_RapidFire Uptake Assay IC50
readoutName: pIC50
Keep it numeric: pIC50 is minus log10 of the concentration in mol/L.

Cc1cc2cc(CNC(=O)N3CCC3)[nH]c2cc1OCc1ccon1 [Compound 532] ... 6.20
Cc1ncc(COc2cc3[nH]c(CNC(=O)C4(C)CC4)cc3cc2F)s1 [Compound 13] ... 6.12
CCc1c(CNC(=O)N2CCC2)[nH]c2cc(OCc3cscn3)c(Cl)cc12 [Compound 424] ... 6.31
CC(=O)NCc1cc2cc(Cl)c(NCc3ccon3)cc2[nH]1 [Compound 227] ... 6.31
Cc1cncc(COc2cc3[nH]c(CNC(=O)C4(C)CC4)cc3cc2Cl)c1 [Compound 23] ... 6.30
CC1(C(=O)NCc2cc3cc(Cl)c(OCc4cccs4)cc3[nH]2)CC1 [Compound 65] ... 7.34

*Q* Form: Entry = O=C(NCc1cc2cc(Cl)c(NCc3ccon3)cc2[nH]1)N1CCC1 [Compound 407] | System = human SLC6A19 and TMEM27 (Homo sapiens) | pIC50 = ____
*A* 6.23

*Q* Now this one: CC1(C(=O)NCc2cc3cc(Cl)c(OCc4ccno4)cc3[nH]2)CC1 [Compound 326]
*A* 6.90

*Q* Same question, CC1(C(=O)NCc2cc3cc(Cl)c(OCc4cc(C(F)F)on4)cc3[nH]2)CC1 [Compound 96] this time
*A* 6.45
